biological target: rat β2-AR (Rattus norvegicus, UniProt P10608); construct: host or cells: CHO cells, transient transfection; experiment: 3H-CGP12177 whole-cell binding in transiently transfected CHO cells; conditions: transiently transfected CHO cells, mean ± SEM; cells marked ^a are apparent log Kd; read-out: Rat β2-AR Log Kd (converted)
Sequence (P10608 whole entry): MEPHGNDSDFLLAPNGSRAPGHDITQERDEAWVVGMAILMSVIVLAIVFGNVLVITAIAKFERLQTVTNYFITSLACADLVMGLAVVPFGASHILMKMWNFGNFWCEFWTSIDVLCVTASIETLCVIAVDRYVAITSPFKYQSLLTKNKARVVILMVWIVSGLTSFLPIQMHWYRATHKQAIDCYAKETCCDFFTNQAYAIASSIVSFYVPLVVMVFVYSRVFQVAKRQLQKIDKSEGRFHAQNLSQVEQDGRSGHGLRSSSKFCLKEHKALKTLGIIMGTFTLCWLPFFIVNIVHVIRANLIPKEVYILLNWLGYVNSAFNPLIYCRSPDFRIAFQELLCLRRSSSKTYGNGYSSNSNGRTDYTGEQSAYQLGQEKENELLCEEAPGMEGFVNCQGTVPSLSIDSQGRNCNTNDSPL
property name: Kd (µM)

- compound: "N#Cc1cc(OCCOCC2CC2)ccc1OCC(O)CNCCNC(=O)Nc1ccc(O)cc1 (centres unmarked) [LK204-545, reference compound]"
  property name: "Kd"
  reported measurement: 15.5
- compound: "COc1ccccc1OCCNCC(O)COc1cccc2[nH]c3ccccc3c12 (centres unmarked)"
  property name: "Kd"
  reported measurement: 0.000191
- compound: "CC(C)NCC(O)COc1ccc(COCCOC(C)C)cc1 (centres unmarked)"
  property name: "Kd"
  reported measurement: 1.51
- compound: "NC(=O)c1ccc(OCCNC[C@H](O)COc2ccc3c(c2)OC[C@@H](COCC2CC2)O3)cc1"
  property name: "Kd"
  reported measurement: 18.6
- compound: "O=C1NCc2cc(OCCNC[C@H](O)COc3ccc4c(c3)OC[C@@H](COCC3CC3)O4)ccc21"
  property name: "Kd"
  reported measurement: 13.2
